- Test system: L1210 leukemia ip in BDF1 mice, survival T/C
- assay_info: NCI In Vivo Anticancer Drug Screen. Data for tumor model L1210 Leukemia (intraperitoneal) in B6D2F1 (BDF1) mice
- protocol_conditions: endpoint: mean survival time; dose: 50.0 mg/kg/injection; schedule: Q04DX003 (ip); vehicle: Klucel (hydroxypropylcellulose) (HPC); higher = longer survival
Inconclusive results and toxic doses are left out.

# compound, T/C
measured = [
    ("Cc1c(C)c2c(C(N)=O)c3ccccc3nc2c2ccccc12", "100 % of control"),
    ("O=S(=O)(c1ccc(Cl)cc1)C(F)F", "97 % of control"),
    ("CCCCCCCCCC1(C)OCC(COC(N)=O)O1 (stereo not given)", "96 % of control"),
    ("OC1(c2cccc(C(F)(F)F)c2)CCN(C2CC2)CC1", "100 % of control"),
    ("Cc1cc(N(CCCl)CCCl)ccc1C=Nc1cc(Cl)ccc1-n1ccnc1C", "98 % of control"),
    ("Cc1ccc2c(C)c3ccc4ccccc4c3c[n+]2c1", "117 % of control"),
    ("NNC(=S)NC1CCCCC1", "95 % of control"),
    ("[Cl][Rh][Cl].c1cn[nH]c1.c1cn[nH]c1.c1cn[nH]c1.c1cn[nH]c1", "102 % of control"),
    ("CCC(C)C(C#N)(CCN(C)C)Cc1cccc2ccccc12 (stereo not given)", "92 % of control"),
    ("Cc1ccc(NC2=CCC(=O)OC2=O)cc1", "105 % of control"),
]
